I'd appreciate it if you could supply Photostability Dark (24 h) values for the items below.
Assay method text: Photostability, percentage remaining undegraded under illumination or in the dark
Test context: percentage remaining undegraded in the dark, 24 h
Give just the number in %; leave the unit off.

Entry under review: Cc1cc2c(cc1C)C(=O)[C@]1(O)CCN(c3ccc4oc(CO)cc4c3)C1=N2 . Reported Photostability Dark (24 h)?
93.6

Entry under review: COc1cc(N2CC[C@@]3(O)C(=O)c4cc(C)c(C)cc4N=C23)ccn1 . Reported Photostability Dark (24 h)?
98.2

Entry under review: Cc1cc2c(cc1F)C(=O)[C@]1(O)CCN(c3ccc4ccoc4c3)C1=N2 . Reported Photostability Dark (24 h)?
91.0

Entry under review: Cc1cc2c(cc1C)C(=O)[C@]1(O)CCN(c3ccc4ncc(CN(C)C)cc4c3)C1=N2 . Reported Photostability Dark (24 h)?
97.8

Entry under review: Cc1cc2c(cc1C)C(=O)[C@]1(O)CCN(c3ccc4c(c3)NCCC4)C1=N2 . Reported Photostability Dark (24 h)?
93.7

Entry under review: Cc1ccc(N2CC[C@@]3(O)C(=O)c4cc(C)c(C(F)(F)F)cc4N=C23)cc1Cl . Reported Photostability Dark (24 h)?
96.0

Entry under review: Cc1cc(C)c2c(c1)N=C1N(c3ccc4ncccc4c3)CC[C@@]1(O)C2=O . Reported Photostability Dark (24 h)?
97.3

Entry under review: Cc1cc2c(cc1C)C(=O)[C@]1(O)CCN(c3ccc4nc(CN(C)C)ccc4c3)C1=N2 . Reported Photostability Dark (24 h)?
98.4

Entry under review: O=C1c2cc(Cl)c(Cl)cc2N=C2N(c3ccccc3)CC[C@@]12O . Reported Photostability Dark (24 h)?
85.1

Entry under review: Cc1ccc2c(c1)C(=O)[C@]1(O)CCN(c3ccc(Cl)c(C)c3)C1=N2 . Reported Photostability Dark (24 h)?
97.8

Entry under review: Cc1ccc2c(c1)C(=O)[C@]1(O)CCN(c3ccc4nc(C#N)ccc4c3)C1=N2 . Reported Photostability Dark (24 h)?
97.5

Entry under review: Cc1cc2c(cc1C)C(=O)[C@]1(O)CCN(c3ccc4ncsc4c3)C1=N2 . Reported Photostability Dark (24 h)?
97.1

Entry under review: Cc1cc2cc(N3CC[C@@]4(O)C(=O)c5cc(C)c(C)cc5N=C34)ccc2cn1 . Reported Photostability Dark (24 h)?
98.3

* * *

Assay method text: Photostability, percentage remaining undegraded under illumination or in the dark
Test context: percentage remaining undegraded in the dark, 24 h
Property: Photostability Dark (24 h) (%)
Give just the number in %; leave the unit off.

Entry under review: Cc1cc2c(cc1C)C(=O)[C@]1(O)CCN(c3ccc4c(c3)NCCS4)C1=N2 [BPN-0028922] . Reported Photostability Dark (24 h)?
94.8

Entry under review: Cc1cc(N2CC[C@@]3(O)C(=O)c4cc(C)c(C(F)(F)F)cc4N=C23)on1 [BPN-0027346] . Reported Photostability Dark (24 h)?
98.1

Entry under review: Cc1cc2c(s1)N=C1N(c3ccc(C#N)c(Cl)c3)CC[C@@]1(O)C2=O [BPN-0027257] . Reported Photostability Dark (24 h)?
97.4

Entry under review: Cc1ccc(N2CC[C@@]3(O)C(=O)c4cc(C)c(C(F)(F)F)cc4N=C23)cc1 [BPN-0026819] . Reported Photostability Dark (24 h)?
97.3

Entry under review: COc1ccc2cc(N3CC[C@@]4(O)C(=O)c5cc(C)c(C)cc5N=C34)ccc2n1 [BPN-0027250] . Reported Photostability Dark (24 h)?
70.1

Entry under review: Cc1cc2c(cc1C)C(=O)[C@]1(O)CCN(c3cnc4c(c3)NCCO4)C1=N2 [BPN-0028734] . Reported Photostability Dark (24 h)?
96.3

Entry under review: CCC1=CC2N=C3N(c4ccc5ncccc5c4)CC[C@@]3(O)C(=O)C2S1 (some centres unmarked) [BPN-0028625] . Reported Photostability Dark (24 h)?
81.8

Entry under review: Cc1cc2c(cc1C)C(=O)[C@]1(O)CCN(c3ccc4ncccc4c3)C1=N2 [BPN-0027215] . Reported Photostability Dark (24 h)?
97.3

Entry under review: CCc1cc(N2CC[C@@]3(O)C(=O)c4cc(C)c(C)cc4N=C23)ccn1 [BPN-0028864] . Reported Photostability Dark (24 h)?
98.4

Entry under review: O=C1c2cc(Cl)ccc2NC2N(c3ccc4ccoc4c3)CC[C@@]12O (some centres unmarked) [BPN-0026401] . Reported Photostability Dark (24 h)?
97.7

* * *

Subject of test: Rabbit skeletal myosin
Assay method text: Skeletal muscle myosin II actin-activated ATPase assay
Test context: 20 nM skeletal muscle myosin II; read-out: SKMMII KI
pKi: −log10 of the molar value.
Respond with yes (1) for pKi values of 6 and above, no (0) for values below.

Does pKi meet or surpass 6 for Cc1cc2c(cc1C)C(=O)[C@]1(O)CCN(c3ccc4nnccc4c3)C1=N2 ?
no (0)

Does pKi meet or surpass 6 for Cc1ccc2c(c1)C(=O)[C@]1(O)CCN(c3ccc4nc(C#N)ccc4c3)C1=N2 ?
no (0)

Does pKi meet or surpass 6 for CCc1cc2c(s1)N=C1N(c3ccc4ncccc4c3)CC[C@@]1(O)C2=O ?
no (0)

Does pKi meet or surpass 6 for Cc1cc2c(cc1C)C(=O)[C@]1(O)CCN(c3ccc(I)cc3)C1=N2 ?
yes (1)

Does pKi meet or surpass 6 for Cc1ccc2c(c1)C(=O)[C@]1(O)CCN(c3ccc(C)c(Cl)c3)C1=N2 ?
no (0)

Does pKi meet or surpass 6 for COc1cc(N2CC[C@@]3(O)C(=O)c4cc(C)c(C(F)(F)F)cc4N=C23)ccn1 ?
no (0)

Does pKi meet or surpass 6 for Cc1cc2c(cc1C)C(=O)[C@]1(O)CCN(c3ccc(Cl)cc3)C1=N2 ?
yes (1)

* * *

I'd appreciate it if you could supply Photostability Dark (24 h) values for the items below.
Assay method text: Photostability, percentage remaining undegraded under illumination or in the dark
Test context: percentage remaining undegraded in the dark, 24 h
Give just the number in %; leave the unit off.

Entry under review: O=C1c2cc(C(F)(F)F)ccc2N=C2N(c3ccc(Cl)cc3)CC[C@@]12O . Reported Photostability Dark (24 h)?
93.7

Entry under review: Cc1ccc2c(c1)C(=O)[C@]1(O)CCN(c3ccc4c(c3)OCCN4)C1=N2 . Reported Photostability Dark (24 h)?
95.5

Entry under review: COc1cccc(N2CC[C@@]3(O)C(=O)c4cc(F)c(C)cc4N=C23)c1 . Reported Photostability Dark (24 h)?
96.6

* * *

Subject of test: Bovine cardiac myosin (Bos taurus (Bovine), UniProt Q9BE39)
Sequence (Q9BE39 whole entry): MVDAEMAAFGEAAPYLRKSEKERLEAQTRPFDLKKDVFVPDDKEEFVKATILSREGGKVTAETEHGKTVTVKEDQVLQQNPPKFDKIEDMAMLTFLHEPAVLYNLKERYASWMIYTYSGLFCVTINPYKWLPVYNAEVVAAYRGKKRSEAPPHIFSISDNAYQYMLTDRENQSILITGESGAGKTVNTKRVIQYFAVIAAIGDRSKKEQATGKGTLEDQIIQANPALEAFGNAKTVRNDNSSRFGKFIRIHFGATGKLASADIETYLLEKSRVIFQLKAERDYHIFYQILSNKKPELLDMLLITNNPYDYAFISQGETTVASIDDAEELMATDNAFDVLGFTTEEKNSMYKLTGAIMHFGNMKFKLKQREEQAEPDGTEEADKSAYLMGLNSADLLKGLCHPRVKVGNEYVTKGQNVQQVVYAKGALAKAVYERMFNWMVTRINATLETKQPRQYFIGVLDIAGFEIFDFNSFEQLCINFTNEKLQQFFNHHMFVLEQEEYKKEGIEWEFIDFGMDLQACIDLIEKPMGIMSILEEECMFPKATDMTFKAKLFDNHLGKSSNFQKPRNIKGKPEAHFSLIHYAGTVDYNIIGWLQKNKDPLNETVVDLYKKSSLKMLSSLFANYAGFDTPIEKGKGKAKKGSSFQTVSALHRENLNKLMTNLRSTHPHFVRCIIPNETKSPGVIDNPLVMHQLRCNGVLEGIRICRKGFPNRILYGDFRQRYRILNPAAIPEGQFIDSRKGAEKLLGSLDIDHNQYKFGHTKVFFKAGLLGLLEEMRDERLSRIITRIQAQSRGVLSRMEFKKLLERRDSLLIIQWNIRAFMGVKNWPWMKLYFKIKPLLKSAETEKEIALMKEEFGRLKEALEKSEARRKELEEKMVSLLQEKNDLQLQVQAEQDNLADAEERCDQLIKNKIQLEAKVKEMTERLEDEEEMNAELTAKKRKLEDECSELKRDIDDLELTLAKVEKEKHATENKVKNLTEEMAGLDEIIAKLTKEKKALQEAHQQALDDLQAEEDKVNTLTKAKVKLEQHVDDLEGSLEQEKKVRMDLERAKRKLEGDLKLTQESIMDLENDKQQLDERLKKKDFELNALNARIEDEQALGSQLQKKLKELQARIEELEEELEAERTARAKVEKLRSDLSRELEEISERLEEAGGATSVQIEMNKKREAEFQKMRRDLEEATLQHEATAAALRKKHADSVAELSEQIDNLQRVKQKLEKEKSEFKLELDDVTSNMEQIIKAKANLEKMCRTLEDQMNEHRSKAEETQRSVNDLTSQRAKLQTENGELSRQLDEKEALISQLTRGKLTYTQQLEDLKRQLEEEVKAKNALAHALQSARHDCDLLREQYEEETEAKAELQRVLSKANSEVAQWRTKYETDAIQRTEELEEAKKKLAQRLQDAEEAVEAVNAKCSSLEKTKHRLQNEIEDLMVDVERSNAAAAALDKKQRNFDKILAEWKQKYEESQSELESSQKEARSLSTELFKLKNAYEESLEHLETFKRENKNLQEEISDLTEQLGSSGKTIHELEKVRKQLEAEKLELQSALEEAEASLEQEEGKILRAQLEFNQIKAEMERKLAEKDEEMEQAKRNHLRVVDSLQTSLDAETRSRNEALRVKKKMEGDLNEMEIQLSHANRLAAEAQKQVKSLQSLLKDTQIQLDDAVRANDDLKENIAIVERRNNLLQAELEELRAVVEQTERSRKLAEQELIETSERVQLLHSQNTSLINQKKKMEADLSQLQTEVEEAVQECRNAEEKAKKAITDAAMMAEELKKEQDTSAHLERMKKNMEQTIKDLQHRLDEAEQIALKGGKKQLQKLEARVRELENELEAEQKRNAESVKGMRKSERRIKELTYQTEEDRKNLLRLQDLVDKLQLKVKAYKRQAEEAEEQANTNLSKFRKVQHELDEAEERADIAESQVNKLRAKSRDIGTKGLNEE
Sequence (P85100 whole entry partner): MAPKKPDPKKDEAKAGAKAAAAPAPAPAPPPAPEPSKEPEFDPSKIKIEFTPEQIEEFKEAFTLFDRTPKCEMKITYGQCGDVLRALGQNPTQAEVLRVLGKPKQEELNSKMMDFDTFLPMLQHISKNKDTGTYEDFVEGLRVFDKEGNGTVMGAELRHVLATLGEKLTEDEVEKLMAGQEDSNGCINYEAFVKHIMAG
Sequence (Q3SZE5 whole entry partner): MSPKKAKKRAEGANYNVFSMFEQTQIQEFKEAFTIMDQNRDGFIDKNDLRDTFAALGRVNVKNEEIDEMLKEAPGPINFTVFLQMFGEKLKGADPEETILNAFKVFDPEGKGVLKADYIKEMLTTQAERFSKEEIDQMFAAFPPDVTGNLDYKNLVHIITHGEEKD
Assay method text: Cardiac muscle myosin II actin-activated ATPase assay (NADH-coupled)
Type: biochemical
Test context: cardiac myosin II Ki over nonmuscle myosin II EC50
Property: Ratio CMMII:NMII Ki/EC50

>  <Molecule>
Cc1cc(N2CC[C@@]3(O)C(=O)c4cc(C(F)(F)F)ccc4N=C23)on1

>  <Property>
Ratio CMMII:NMII Ki/EC50

>  <Experimental value>
4.5

$$$$
>  <Molecule>
Cc1ccc2c(c1)C(=O)[C@]1(O)CCN(c3ccc4c(C)noc4c3)C1=N2

>  <Property>
Ratio CMMII:NMII Ki/EC50

>  <Experimental value>
NMII-sel

$$$$
>  <Molecule>
Cc1cc2c(cc1C)C(=O)[C@]1(O)CCN(c3ccc4ncncc4c3)C1=N2

>  <Property>
Ratio CMMII:NMII Ki/EC50

>  <Experimental value>
10.7

$$$$
>  <Molecule>
Cc1cc2c(s1)C(=O)[C@]1(O)CCN(c3ccc(C#N)c(Cl)c3)C1=N2

>  <Property>
Ratio CMMII:NMII Ki/EC50

>  <Experimental value>
6.6

$$$$

In the following, a different molecule is considered.
Entry under review: Cc1cc2c(s1)C(=O)[C@]1(O)CCN(c3ccc(C)c(Cl)c3)C1=N2 . Reported Ratio CMMII:NMII Ki/EC50?
3.6

* * *

Subject of test: Bovine cardiac myosin (Bos taurus (Bovine), UniProt Q9BE39)
Assay method text: Cardiac muscle myosin II actin-activated ATPase assay (NADH-coupled)
Type: biochemical
Test context: cardiac myosin II Ki over nonmuscle myosin II EC50
Respond with True for Ratio CMMII:NMII Ki/EC50 values of 10 and above, False for values below.

Does Ratio CMMII:NMII Ki/EC50 meet or surpass 10 for Cc1cc2c(cc1C)C(=O)[C@]1(O)CCN(c3ccc4nnccc4c3)C1=N2 [BPN-0027241] ?
False

Does Ratio CMMII:NMII Ki/EC50 meet or surpass 10 for Cc1ccc(N2CC[C@@]3(O)C(=O)c4cc(Cl)ccc4N=C23)cc1 [BPN-0026609] ?
False

Does Ratio CMMII:NMII Ki/EC50 meet or surpass 10 for Cc1ccc2c(c1)C(=O)[C@]1(O)CCN(c3ccc4nsnc4c3)C1=N2 [BPN-0027394] ?
False

Does Ratio CMMII:NMII Ki/EC50 meet or surpass 10 for Cc1cc2c(cc1F)C(=O)[C@]1(O)CCN(c3ccc4ccoc4c3)C1=N2 [BPN-0026619] ?
True

Does Ratio CMMII:NMII Ki/EC50 meet or surpass 10 for Cc1cc2c(cc1C)C(=O)[C@]1(O)CCN(c3ccc4c(c3)OCCN4)C1=N2 [BPN-0028552] ?
True

Does Ratio CMMII:NMII Ki/EC50 meet or surpass 10 for COc1cccc(N2CC[C@@]3(O)C(=O)c4cc(C)c(C)cc4N=C23)c1 [BPN-0026496] ?
True

Does Ratio CMMII:NMII Ki/EC50 meet or surpass 10 for Cc1cc2c(cc1C)C(=O)[C@]1(O)CCN(c3cccs3)C1=N2 [BPN-0026708] ?
False

Does Ratio CMMII:NMII Ki/EC50 meet or surpass 10 for COc1cc(N2CC[C@@]3(O)C(=O)c4cc(F)c(C)cc4N=C23)ccn1 [BPN-0026745] ?
True

Does Ratio CMMII:NMII Ki/EC50 meet or surpass 10 for O=C1c2cc(Cl)ccc2N=C2N(c3ccc(Cl)cc3)CC[C@@]12O [BPN-0026640] ?
False

Does Ratio CMMII:NMII Ki/EC50 meet or surpass 10 for Cc1cc2c(cc1C)C(=O)[C@]1(O)CCN(c3cnc4sccc4c3)C1=N2 [BPN-0027489] ?
True

Does Ratio CMMII:NMII Ki/EC50 meet or surpass 10 for Cc1cc2c(cc1C(F)(F)F)N=C1N(c3ccccc3)CC[C@@]1(O)C2=O [BPN-0026648] ?
True

Does Ratio CMMII:NMII Ki/EC50 meet or surpass 10 for Cc1cc2c(cc1C)C(=O)[C@]1(O)CCN(c3ccc4c(c3)NCCS4)C1=N2 [BPN-0028922] ?
False

Does Ratio CMMII:NMII Ki/EC50 meet or surpass 10 for Cc1cc2c(cc1C)C(=O)[C@]1(O)CCN(c3cnc(C#N)c(C)c3)C1=N2 [BPN-0028760] ?
False

Does Ratio CMMII:NMII Ki/EC50 meet or surpass 10 for Cc1nc2cc(N3CC[C@@]4(O)C(=O)c5cc(C)c(C)cc5N=C34)ccc2s1 [BPN-0027491] ?
True

Does Ratio CMMII:NMII Ki/EC50 meet or surpass 10 for Cc1ccc2c(c1)C(=O)[C@]1(O)CCN(c3ccn4ncnc4c3)C1=N2 [BPN-0027441] ?
False

Does Ratio CMMII:NMII Ki/EC50 meet or surpass 10 for Cc1nc2ccc(N3CC[C@@]4(O)C(=O)c5cc(C)c(C)cc5N=C34)cc2o1 [BPN-0027213] ?
True

Does Ratio CMMII:NMII Ki/EC50 meet or surpass 10 for Cc1nc2cc(N3CC[C@@]4(O)C(=O)c5cc(F)c(C)cc5N=C34)ccc2o1 [BPN-0027198] ?
False

The reported measurements were obtained from patent US20250163056A1.
